All values here come from the supplement of paper PMC7877785.

# experimental_protocol: self-splicing fitness, log relative to wild type (ln ratio); higher = more splicing; Tetrahymena group I intron in knt gene, E. coli kanamycin selection, DiMSum; sequences stand for … in CUCUCU…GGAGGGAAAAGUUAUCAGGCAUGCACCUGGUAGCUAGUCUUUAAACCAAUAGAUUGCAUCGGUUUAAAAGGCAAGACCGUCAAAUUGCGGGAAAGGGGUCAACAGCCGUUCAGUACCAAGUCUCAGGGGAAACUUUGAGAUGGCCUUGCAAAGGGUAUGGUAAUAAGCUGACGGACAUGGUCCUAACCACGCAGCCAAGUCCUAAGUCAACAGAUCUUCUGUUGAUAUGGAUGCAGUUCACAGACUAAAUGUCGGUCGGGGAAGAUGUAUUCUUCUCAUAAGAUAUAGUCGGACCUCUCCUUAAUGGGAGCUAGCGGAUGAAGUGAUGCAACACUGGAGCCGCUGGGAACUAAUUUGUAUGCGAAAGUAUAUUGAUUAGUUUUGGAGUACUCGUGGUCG;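 also: selection with 25 µg/mL kanamycin versus none on LB agar overnight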
# condition_summary: 30 °C
Exercise: state measured self-splicing fitness (ln) for each of the sequences provided.
Answers are plain numbers.

Examples with answers:
[
  {
    "biosequence": "ACGAAGCAAUAUUACGCAUG",
    "test_result": -1.79
  },
  {
    "biosequence": "CAUAAGCAAUAUUACGGUAC",
    "test_result": -2.89
  },
  {
    "biosequence": "UGCGAGCAAUAUUACGCCGC",
    "test_result": -3.34
  },
  {
    "biosequence": "UGCAAGCAAUAUUACGCAAA",
    "test_result": -2.5
  },
  {
    "biosequence": "CCACAGCAAUAUUACGAGUA",
    "test_result": -3.68
  }
]

Please state, for each entry, its recorded self-splicing fitness (ln).
1. GUGGAGCAAUAUUACGGCUA
2. AUAGAGCAAUAUUACGCGUU

1: -1.06; 2: -1.47

Please state, for each entry, its recorded self-splicing fitness (ln).
1. CGGAAGCAAUAUUACGACGA
2. GGCUAGCAAUAUUACGAUAA
3. AGGGAGCAAUAUUACGAGAC
4. AUUAAGCAAUAUUACGUGAU
5. UAGUAGCAAUAUUACGUCUU
6. AAGCAGCAAUAUUACGUUCC
7. GGCCAGCAAUAUUACGGUGC

1: -1.75; 2: -1.28; 3: -3.09; 4: -1.74; 5: -0.75; 6: -1.73; 7: -2.91

Please state, for each entry, its recorded self-splicing fitness (ln).
1. AUAGAGCAAUAUUACGUUUA
2. GAUGAGCAAUAUUACGUACA
3. CACGAGCAAUAUUACGAGUG
4. UUAGAGCAAUAUUACGACAU
5. CAUGAGCAAUAUUACGUCUA
6. CUCGAGCAAUAUUACGAGGG
7. ACGGAGCAAUAUUACGUGAC

-0.804
-2.09
-3.34
-1.89
-2.57
-3.45
-2.68

Please state, for each entry, its recorded self-splicing fitness (ln).
1. AAGAAGCAAUAUUACGUAAC
2. GGAUAGCAAUAUUACGAUAG

1. -2.35
2. -2.63
